MEASUREMENT TARGET: Human isolated cathepsin B (Homo sapiens, UniProt P07858)
Construct: Human isolated cathepsin B (Calbiochem) was assayed spectrophotometrically; purchased Calbiochem
PROTOCOL DETAILS: Cathepsin B assay (chromogenic substrate Z-Arg-Arg-pNA)
Assay type: biochemical
MEASUREMENT PARAMETERS: 50 µM inhibitor, 60 min; 100% = no inhibitor; n.i. = residual activity ≥ 95%; read-out: Percentage residual activity of human cathepsin B
VALUE KIND: remaining activity at 50 µM (%)
# value in %; strip the unit string

Ask: Which remaining activity at 50 µM is reported for this molecule? C#CCNC(=O)C1=C(C)NC(C)=C(C(=O)NCC#C)C1c1ccccc1Br
Reply: 88

Ask: Which remaining activity at 50 µM is reported for this molecule? C#CCNC(=O)C1=C(C)NC(C)=C(C(=O)NCC#C)C1c1ccccc1OC
Reply: 71

Ask: Which remaining activity at 50 µM is reported for this molecule? C#CCNC(=O)C1=C(C)NC(C)=C(C(=O)NCC#C)C1c1cccc(Br)c1
Reply: 71

Ask: Which remaining activity at 50 µM is reported for this molecule? C#CCN(C)C(=O)C1=C(C)NC(C)=C(C(=O)N(C)CC#C)C1c1cccc(Cl)c1Cl
Reply: 90

Ask: Which remaining activity at 50 µM is reported for this molecule? C#CCN(C)C(=O)C1=C(C)NC(C)=C(C(=O)N(C)CC#C)C1c1ccccc1Cl
Reply: 87

Ask: Which remaining activity at 50 µM is reported for this molecule? C#CCN(C)C(=O)C1=C(C)NC(C)=C(C(=O)N(C)CC#C)C1c1cccc(OC)c1
Reply: 86

Ask: Which remaining activity at 50 µM is reported for this molecule? C#CCN(C)C(=O)C1=C(C)NC(C)=C(C(=O)N(C)CC#C)C1c1ccccc1OC
Reply: 86
